meta.source: patent US12227500B2

Molecular target: panel of 60 human kinases (Homo sapiens)
Construct: purchased Reaction Biology Corp
Experiment: Radiolabeled ATP kinase assay, panel of 60 kinases (Table S5)
Type: biochemical
Details: HGK/MAP4K4; 0.1 μM; 10 μM ATP; read-out: % Enzyme Activity (relative to DSMO controls)
Hi there, I'd appreciate the recorded remaining activity at 0.1 µM for every entry that follows.
Give bare numbers, in %.

Worked set:
1) COc1ccccc1-c1c[nH]c2ncc(-c3ccc(CN4CCN(C)CC4)cc3)cc12 [Compound 7at]	9.52
2) Cc1nn(C)c(C)c1-c1c[nH]c2ncc(-c3ccc(CN4CCN(C)CC4)cc3)cc12 [Compound 7ai]	9.15
3) CN1CCN(Cc2ccc(-c3cnc4[nH]cc(-c5cnn(Cc6ccccc6)c5)c4c3)cc2)CC1 [Compound 7ah]	5.18
4) CN1CCN(Cc2ccc(-c3cnc4[nH]cc(-c5ccoc5)c4c3)cc2)CC1 [Compound 7w]	2.85
5) CN1CCN(Cc2ccc(-c3cnc4[nH]cc(-c5cccc(Cl)c5)c4c3)cc2)CC1 [Compound 7ad]	1.36

Give remaining activity at 0.1 µM for each of the items listed below.
1. CN1CCN(Cc2ccc(-c3cnc4[nH]cc(-c5ccc6c(c5)OCCO6)c4c3)cc2)CC1 [Compound 7d]
2. CN1CCN(Cc2ccc(-c3cnc4[nH]cc(-c5ccccc5Cl)c4c3)cc2)CC1 [Compound 7as]

1: 2.05; 2: -0.5

Give remaining activity at 0.1 µM for each of the items listed below.
1. CN1CCN(Cc2ccc(-c3cnc4[nH]cc(-c5ccncc5)c4c3)cc2)CC1 [Compound 7n]
2. CN1CCN(Cc2ccc(-c3cnc4[nH]cc(-c5ccc6[nH]ccc6c5)c4c3)cc2)CC1 [Compound 1, reference compound]

1: 35; 2: 1.96

====

Hi there, I'd appreciate the recorded Kp at 30 min for every entry that follows.
Assay: Plasma and brain concentration 30 min after IP injection
Assay type: in vivo, mouse
Conditions: male, C57BL6/J, mouse, brain/plasma; mice, ip dosing, 10 mg/kg, 30 minutes; read-out: B/P
Numbers only.

1. CN1CCN(Cc2ccc(-c3cnc4[nH]cc(-c5ccc6[nH]ccc6c5)c4c3)cc2)CC1 [Compound 1, reference compound]	0.3
2. O[C@@H]1CCN(Cc2ccc(-c3cnc4[nH]cc(-c5cccc(F)c5)c4c3)cc2)C1 [Compound 12i]	3.7
3. O[C@@H]1CCN(Cc2ccc(-c3cnc4[nH]cc(-c5cccc(Cl)c5)c4c3)cc2)C1 [Compound 12l]	1.7
4. OCCN1CCN(Cc2ccc(-c3cnc4[nH]cc(-c5cccc(F)c5)c4c3)cc2)CC1 [Compound 12h]	2

We next turn to a different compound, shown below.
Param item = OCCN1CCN(Cc2ccc(-c3cnc4[nH]cc(-c5cccc(Cl)c5)c4c3)cc2)CC1 [Compound 12k] ; retrieve measured Kp at 30 min.
3.3

====

Target: panel of 60 human kinases (Homo sapiens, UniProt Q15759)
Construct: purchased Reaction Biology Corp
Sequence (Q15759 whole entry): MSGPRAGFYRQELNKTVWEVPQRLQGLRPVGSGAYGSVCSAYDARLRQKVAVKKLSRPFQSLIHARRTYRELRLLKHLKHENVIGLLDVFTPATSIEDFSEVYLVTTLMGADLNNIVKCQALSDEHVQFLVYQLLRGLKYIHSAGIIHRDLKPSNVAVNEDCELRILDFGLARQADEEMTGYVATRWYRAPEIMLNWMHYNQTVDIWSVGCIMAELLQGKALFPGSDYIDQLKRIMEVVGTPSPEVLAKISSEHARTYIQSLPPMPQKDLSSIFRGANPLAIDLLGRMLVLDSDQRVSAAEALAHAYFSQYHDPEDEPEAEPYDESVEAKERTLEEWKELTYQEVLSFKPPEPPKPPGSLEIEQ
Test: Radiolabeled ATP kinase assay, panel of 60 kinases (Table S5)
Type: biochemical
Settings: P38b/MAPK11; 0.1 μM; 10 μM ATP; read-out: % Enzyme Activity (relative to DSMO controls)
reported endpoint: remaining activity at 0.1 µM (%)
Numbers only, in %.

Worked set:
1) CN1CCN(Cc2ccc(-c3cnc4[nH]cc(-c5ccc6c(c5)OCCO6)c4c3)cc2)CC1	101
2) CN1CCN(Cc2ccc(-c3cnc4[nH]cc(-c5ccoc5)c4c3)cc2)CC1	99.3
3) Cc1nn(C)c(C)c1-c1c[nH]c2ncc(-c3ccc(CN4CCN(C)CC4)cc3)cc12	104

Give remaining activity at 0.1 µM for each of the items listed below.
1. CN1CCN(Cc2ccc(-c3cnc4[nH]cc(-c5cccc(Cl)c5)c4c3)cc2)CC1
2. CN1CCN(Cc2ccc(-c3cnc4[nH]cc(-c5cnn(Cc6ccccc6)c5)c4c3)cc2)CC1
3. CN1CCN(Cc2ccc(-c3cnc4[nH]cc(-c5ccncc5)c4c3)cc2)CC1
4. CN1CCN(Cc2ccc(-c3cnc4[nH]cc(-c5ccccc5Cl)c4c3)cc2)CC1
5. COc1ccccc1-c1c[nH]c2ncc(-c3ccc(CN4CCN(C)CC4)cc3)cc12
6. CN1CCN(Cc2ccc(-c3cnc4[nH]cc(-c5ccc6[nH]ccc6c5)c4c3)cc2)CC1 [Compound 1, reference compound]

1. 103
2. 101
3. 101
4. 99.5
5. 97.7
6. 104
